Source listed as patent US20240270821A1.

# Tested system: hGLP-1R (Homo sapiens)
# Test name: Functional cAMP activation in the presence of 0.1% casein (no HSA);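 also: intracellular cAMP rise after 30 min at 37 °C read by HTRF, normalized between buffer only (0%) and maximal control ligand (100%), four-parameter variable-slope fit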
# Format: cell-based
pEC50: −log10 of the molar value. Starred links: 1 amine or outer side, 2 acyl side, 3 side chain; linkers in the order of their positions; H or OH if unused. Non-standard residues stand in square brackets, D forms with d. Groups on a side chain read outwards from the residue. No end group written: not given here. *: point of attachment. C20 diacid = O=C(O)CCCCCCCCCCCCCCCCCCC(=O)*; C18 diacid = O=C(O)CCCCCCCCCCCCCCCCC(=O)*; αMePhe(2-F) = C[C@](N)(Cc1ccccc1F)C(=O)O; γGlu = O=C(O)[C@H](CCC(=O)[*:2])N[*:1]; αMe4Pal = C[C@](N)(Cc1ccncc1)C(=O)O; αMeY = C[C@](N)(Cc1ccc(O)cc1)C(=O)O; 4Pal = N[C@@H](Cc1ccncc1)C(=O)O; αMeL = CC(C)C[C@](C)(N)C(=O)O; αMeS = C[C@](N)(CO)C(=O)O; Orn = NCCC[C@H](N)C(=O)O; AEEA = NCCOCCOCC(=O)O; Aib = CC(C)(N)C(=O)O
Measure: pEC50

substance="H-Y[Aib]QGTFTSDFSQ[αMeL]LDKK([AEEA-γGlu-C18 diacid])AQ[αMe4Pal]AFIEYLIE[Aib]GESSGAPPPSGE-NH2 [Example 233]" observed_value=9.06
substance="H-Y[Aib]QGTFTSDFSR[αMeL]LDKK([AEEA-AEEA-γGlu-C18 diacid])AQ[Aib]AFIEYLLE[Aib]GPSSGAPPPSGS-NH2 [Example 80]" observed_value=8.59
substance="H-Y[Aib]QGTFTSDFSR[αMeL]LDKK([AEEA-γGlu-C20 diacid])AQ[Aib]AFIEYLLE[Aib]GPSSGAPPPGGS-NH2 [Example 42]" observed_value=8.66
substance="H-Y[Aib]QGTFTSDFSR[αMeL]LDKK([AEEA-γGlu-C18 diacid])AQ[αMe4Pal]AFIEYLIE[Aib]GESSGAPPPSGE-NH2 [Example 231]" observed_value=8.89
substance="H-Y[Aib]QGTFTSDYSI[αMeL]LDKQAAK([AEEA-AEEA-γGlu-C20 diacid])QFIEWLIEGGPSSGEPPPGAE-NH2 [Example 319]" observed_value=9.02
substance="H-Y[Aib]QGT[αMePhe(2-F)]TSD[4Pal][αMeS]I[αMeL]LD[Orn]K([γGlu-γGlu-C18 diacid])AQ[αMe4Pal]EFI[dE][αMeY]LIEGGPSSGAPPPEGTGE-NH2 [Example 764]" observed_value=9.54
substance="H-Y[Aib]QGTFTSDFS[Orn][αMeL]LDKK([AEEA-AEEA-γGlu-C20 diacid])AQ[Aib]AFIEYLLE[Aib]GPSSGAPPPGEG-NH2 [Example 70]" observed_value=8.57
substance="Y[Aib]QGTFTSDFSQ[αMeL]LDKK([AEEA-γGlu-C18 diacid])AQ[αMe4Pal]AFIEYLIE[Aib]GESSGAPPPSGS-NH2 [Example 232]" observed_value=9.09
substance="H-Y[Aib]QGTFTSD[4Pal]S[Orn][αMeL]LD[Orn]K([γGlu-γGlu-C18 diacid])AQ[αMe4Pal]QFIE[αMeY]LLEGGPSSGAPPPSGSEE-NH2 [Example 975]" observed_value=7.99
substance="H-Y[Aib]QGTFTSDFSK[αMeL]LDKK([AEEA-γGlu-C20 diacid])AQQAFIEYLLA[Aib]GPSSGEPPPSEG-NH2 [Example 19]" observed_value=8.40
substance="H-Y[Aib]QGTFTSDFSR[αMeL]LDKK([AEEA-γGlu-C18 diacid])AQ[Aib]AFIEYLLE[Aib]GPSSGAPPPSGS-NH2 [Example 79]" observed_value=8.74
substance="H-Y[Aib]QGTFTSDFSK[αMeL]LDKK([AEEA-γGlu-C20 diacid])AQQAFIEYLLA[Aib]GPSSGAPPPSEG-NH2 [Example 30]" observed_value=8.50
substance="H-Y[Aib]QGTFTSDFSK[αMeL]LDKK([AEEA-γGlu-C20 diacid])AQ[Aib]AFIEYLLE[Aib]GPSSGAPPPSSG-NH2 [Example 44]" observed_value=8.78

====

# Tested system: hGLP-1R (Homo sapiens, UniProt P43220)
# Sequence (P43220 24-463): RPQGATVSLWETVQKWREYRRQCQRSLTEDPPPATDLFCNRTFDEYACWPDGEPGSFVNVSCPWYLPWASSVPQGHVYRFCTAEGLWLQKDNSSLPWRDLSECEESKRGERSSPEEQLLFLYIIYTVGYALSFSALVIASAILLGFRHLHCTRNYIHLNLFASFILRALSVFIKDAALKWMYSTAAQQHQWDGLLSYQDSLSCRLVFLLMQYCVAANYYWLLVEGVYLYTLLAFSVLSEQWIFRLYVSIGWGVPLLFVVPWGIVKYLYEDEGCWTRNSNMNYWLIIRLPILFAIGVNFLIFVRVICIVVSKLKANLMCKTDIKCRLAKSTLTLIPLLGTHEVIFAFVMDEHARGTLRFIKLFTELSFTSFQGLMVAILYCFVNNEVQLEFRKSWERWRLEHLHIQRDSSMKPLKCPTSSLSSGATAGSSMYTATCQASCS
# Test name: Functional cAMP activity in the presence of 1% HSA
# Type: cell-based
# Condition description: read-out: cAMP Rel EC50, hGLP-1R
pEC50: −log10 of the molar value. Starred links: 1 amine or outer side, 2 acyl side, 3 side chain; linkers in the order of their positions; H or OH if unused. Non-standard residues stand in square brackets, D forms with d. Groups on a side chain read outwards from the residue. No end group written: not given here. *: point of attachment. C18 diacid = O=C(O)CCCCCCCCCCCCCCCCC(=O)*; αMePhe(2-F) = C[C@](N)(Cc1ccccc1F)C(=O)O; γGlu = O=C(O)[C@H](CCC(=O)[*:2])N[*:1]; αMe4Pal = C[C@](N)(Cc1ccncc1)C(=O)O; αMeY = C[C@](N)(Cc1ccc(O)cc1)C(=O)O; 4Pal = N[C@@H](Cc1ccncc1)C(=O)O; αMeL = CC(C)C[C@](C)(N)C(=O)O; αMeS = C[C@](N)(CO)C(=O)O; Orn = NCCC[C@H](N)C(=O)O; AEEA = NCCOCCOCC(=O)O; Aib = CC(C)(N)C(=O)O
Measure: pEC50

substance="H-Y[Aib]QGT[αMePhe(2-F)]TSD[4Pal]SILLDKK([γGlu-γGlu-C18 diacid])AQ[Aib]AFIEYLEEGGPSSGAPPPSGEGE-NH2 [Example 621]" tested_system="hGLP-1R (Homo sapiens, UniProt P43220)" measure=pEC50 observed_value=6.95
substance="H-Y[Aib]QGTFTSDFS[Orn][αMeL]LDKK([AEEA-γGlu-C18 diacid])AQ[Aib]AFIEYLLE[Aib]GESSGAPPPSGS-NH2 [Example 240]" tested_system="hGLP-1R (Homo sapiens, UniProt P43220)" measure=pEC50 observed_value=6.40
substance="H-Y[Aib]QGTFTSD[4Pal]SQ[αMeL]LDKK([AEEA-γGlu-C18 diacid])AQ[αMe4Pal]AFIEYLIE[Aib]GPSSGAPPPSGSE-NH2 [Example 886]" tested_system="hGLP-1R (Homo sapiens, UniProt P43220)" measure=pEC50 observed_value=6.57
substance="H-Y[Aib]QGT[αMePhe(2-F)]TSD[4Pal]SI[αMeL]LD[Orn]K([AEEA-γGlu-C18 diacid])AQ[αMe4Pal]EFI[dE][αMeY]LLEGGPSSGAPPPSGS-NH2 [Example 641]" tested_system="hGLP-1R (Homo sapiens, UniProt P43220)" measure=pEC50 observed_value=7.17
substance="H-Y[Aib]QGTFTSD[4Pal]SQ[αMeL]LD[Orn]K([γGlu-γGlu-C18 diacid])AQ[αMe4Pal]AFIEYLIAGGPSSGEPPPSGSE [Example 977]" tested_system="hGLP-1R (Homo sapiens, UniProt P43220)" measure=pEC50 observed_value=6.80
substance="H-Y[Aib]QGT[αMePhe(2-F)]TSD[4Pal][αMeS]I[αMeL]LD[Orn]K([AEEA-γGlu-C18 diacid])AQ[αMe4Pal]EFI[dE][αMeY]LIEGGPSSGEPPPGGE-NH2 [Example 1145]" tested_system="hGLP-1R (Homo sapiens, UniProt P43220)" measure=pEC50 observed_value=7.41
substance="Y[Aib]QGTFTSDFS[Orn][αMeL]LDKK([AEEA-AEEA-γGlu-C18 diacid])AQ[Aib]AFIEYLLE[dA]GPSSGEPPPSGS-NH2 [Example 155]" tested_system="hGLP-1R (Homo sapiens, UniProt P43220)" measure=pEC50 observed_value=6.30
substance="Y[Aib]QGTFTSDFS[Orn][αMeL]LDKK([AEEA-γGlu-C18 diacid])AQ[Aib]AFIEWLLEGGHSSGAPPPGGE-NH2 [Example 273]" tested_system="hGLP-1R (Homo sapiens, UniProt P43220)" measure=pEC50 observed_value=6.29
substance="H-Y[Aib]QGT[αMePhe(2-F)]TSD[4Pal][αMeS]I[αMeL]LD[Orn]K([AEEA-γGlu-C18 diacid])AQ[αMe4Pal]EFI[dE][αMeY]LIEGGPPS[Aib][Orn]PPP[Orn]GS-NH2 [Example 1189]" tested_system="hGLP-1R (Homo sapiens, UniProt P43220)" measure=pEC50 observed_value=7.34
substance="H-Y[Aib]QGT[αMePhe(2-F)]TSD[4Pal][αMeS]I[αMeL]LD[Orn][Orn]([AEEA-γGlu-C18 diacid])AQ[αMe4Pal]EFI[dE][αMeY]LIEGGPSSGAPPPSGS-NH2 [Example 1211]" tested_system="hGLP-1R (Homo sapiens, UniProt P43220)" measure=pEC50 observed_value=7.48
substance="H-Y[Aib]QGTFTSD[4Pal]SQ[αMeL]LD[Orn]K([AEEA-γGlu-C18 diacid])AQ[αMe4Pal]QFIE[αMeY]LIEGGPSSGAPPPSGSEE-NH2 [Example 1045]" tested_system="hGLP-1R (Homo sapiens, UniProt P43220)" measure=pEC50 observed_value=6.56
